# Tested On: 72 kDa type IV collagenase (Homo sapiens)
# Sequence (P08253 whole entry): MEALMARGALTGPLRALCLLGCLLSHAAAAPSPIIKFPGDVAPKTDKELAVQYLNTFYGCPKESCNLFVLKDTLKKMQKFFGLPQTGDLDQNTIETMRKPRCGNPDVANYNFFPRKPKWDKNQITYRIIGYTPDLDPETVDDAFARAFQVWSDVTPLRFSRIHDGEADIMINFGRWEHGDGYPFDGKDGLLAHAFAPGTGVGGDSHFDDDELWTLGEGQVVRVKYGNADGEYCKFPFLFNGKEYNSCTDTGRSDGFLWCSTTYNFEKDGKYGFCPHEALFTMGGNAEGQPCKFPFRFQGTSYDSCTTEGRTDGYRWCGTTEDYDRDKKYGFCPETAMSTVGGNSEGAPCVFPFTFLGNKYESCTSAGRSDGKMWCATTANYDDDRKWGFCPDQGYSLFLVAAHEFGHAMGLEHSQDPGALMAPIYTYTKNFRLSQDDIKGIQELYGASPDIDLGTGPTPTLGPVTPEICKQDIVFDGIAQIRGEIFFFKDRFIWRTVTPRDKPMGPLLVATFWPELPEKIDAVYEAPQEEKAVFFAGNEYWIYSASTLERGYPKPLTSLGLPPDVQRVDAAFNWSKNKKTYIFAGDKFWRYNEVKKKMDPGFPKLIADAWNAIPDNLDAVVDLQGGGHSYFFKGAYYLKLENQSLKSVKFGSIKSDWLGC
# Measurement Protocol: Inhibition of MMP-2.
Please respond with reported pKi for every item in the list.
Here pKi is given on a logarithmic scale as minus log10 of the concentration in mol/L.

Give me measured pKi, please, for this molecule: CC(C)C[C@H](NC(=O)[C@H](CCc1ccccc1)N[C@H](CCCCNC(=O)Cc1ccccc1)C(=O)O)C(=O)Nc1ccccc1
7.15

Give me measured pKi, please, for this molecule: CC(C)C[C@H](NC(=O)[C@H](CCc1ccccc1)N[C@H](CCCCN1C(=O)c2ccccc2C1=O)C(=O)O)C(=O)Nc1ccccc1
7.07

Give me measured pKi, please, for this molecule: CC(C)C[C@H](NC(=O)[C@H](CCc1ccccc1)N[C@H](CCCCN1Cc2ccccc2C1=O)C(=O)O)C(=O)Nc1ccccc1
6.96

Give me measured pKi, please, for this molecule: CC(C)C[C@H](NC(=O)[C@H](CCc1ccccc1)N[C@H](CCCCCNC(=O)c1ccccc1)C(=O)O)C(=O)Nc1ccccc1
6.92

Give me measured pKi, please, for this molecule: CC(C)C[C@H](NC(=O)[C@H](CCc1ccccc1)N[C@H](CCCCNC(=O)c1ccccc1)C(=O)O)C(=O)Nc1ccccc1
6.92

---

# Tested On: Interstitial collagenase (Homo sapiens, UniProt P03956)
# Sequence (P03956 whole entry): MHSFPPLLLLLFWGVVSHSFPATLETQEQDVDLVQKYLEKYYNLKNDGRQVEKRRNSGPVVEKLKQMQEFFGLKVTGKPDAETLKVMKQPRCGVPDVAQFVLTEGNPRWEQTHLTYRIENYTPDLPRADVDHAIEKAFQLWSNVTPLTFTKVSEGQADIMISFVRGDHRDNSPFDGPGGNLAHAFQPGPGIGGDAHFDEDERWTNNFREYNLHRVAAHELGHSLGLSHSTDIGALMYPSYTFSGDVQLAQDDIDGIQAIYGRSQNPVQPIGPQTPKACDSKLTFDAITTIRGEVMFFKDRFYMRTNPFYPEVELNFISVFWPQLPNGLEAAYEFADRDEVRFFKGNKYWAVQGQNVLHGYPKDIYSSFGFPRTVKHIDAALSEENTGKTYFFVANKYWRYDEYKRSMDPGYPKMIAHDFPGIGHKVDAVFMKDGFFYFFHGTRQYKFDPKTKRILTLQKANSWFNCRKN
# Measurement Protocol: Inhibition of matrix metalloprotease -1.
Recorded Metric: Ki (nM)
Respond numerically; units are nM and should not be typed.

Name the recorded Ki of CC(C)C[C@H](NC(=O)[C@H](CCc1ccccc1)N[C@H](CCCCCNC(=O)c1ccccc1)C(=O)O)C(=O)Nc1ccccc1 , assay system Interstitial collagenase (Homo sapiens, UniProt P03956).
3890

Name the recorded Ki of CC[C@@H](N[C@@H](CCc1ccccc1)C(=O)N[C@@H](CC(C)C)C(=O)Nc1ccccc1)C(=O)O , assay system Interstitial collagenase (Homo sapiens, UniProt P03956).
1800

Name the recorded Ki of CC(C)C[C@H](NC(=O)[C@H](CCc1ccccc1)N[C@H](CCN1C(=O)c2ccccc2C1=O)C(=O)O)C(=O)Nc1ccccc1 , assay system Interstitial collagenase (Homo sapiens, UniProt P03956).
2090
